- Experiment Description: recombinant UMI read abundance after kanamycin selection (control-corrected) (log10(CPM+1)); higher = more efficient recombination; extreme values may be limits of the assay; sequences stand for … in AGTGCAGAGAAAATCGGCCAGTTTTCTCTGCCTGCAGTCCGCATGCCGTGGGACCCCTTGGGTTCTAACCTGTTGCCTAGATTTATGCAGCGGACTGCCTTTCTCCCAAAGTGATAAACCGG…AGGTTGGTTTCACT; site = the 11-nt donor;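 further: IS621 bridge recombinase in Escherichia coli cells against a fixed T5 target plasmid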
Property Label: recombinant UMI read abundance (log10)

polymer_sequence="TTAGCAACATGGACCGGTTTTCCCGGTAATCCGTATTTGAG (site TTAGCAACTCT)" reported_result=0.835
polymer_sequence="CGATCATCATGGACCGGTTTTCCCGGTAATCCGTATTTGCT (site CTACCATCTAG)" reported_result=1.69
polymer_sequence="CCGTCTACATGGACCGGTTTTCCCGGTAATCCGTATTTGCT (site CCGTTTACTAG)" reported_result=0
polymer_sequence="CAAGAGCCATGGACCGGTTTTCCCGGTAATCCGTATTTGTG (site CAAGAGCCTCA)" reported_result=1.28
polymer_sequence="TCCACGGCATGGACCGGTTTTCCCGGTAATCCGTATTTGCG (site TCCACGGCTCG)" reported_result=0.0249
polymer_sequence="CCCTTCGCATGGACCGGTTTTCCCGGTAATCCGTATTTGGG (site CCCTTCGCTCC)" reported_result=0.0148
polymer_sequence="ATGGTCGCATGGACCGGTTTTCCCGGTAATCCGTATTTGTT (site ATGGTCGCTAA)" reported_result=1.29
polymer_sequence="AACGTGTCATGGACCGGTTTTCCCGGTAATCCGTATTTGAC (site AAGGTGTCTGT)" reported_result=0
polymer_sequence="AGCCTAGCATGGACCGGTTTTCCCGGTAATCCGTATTTGCT (site AGCCTAGCTAC)" reported_result=0.0198
polymer_sequence="CGGAATACATGGACCGGTTTTCCCGGTAATCCGTATTTGTT (site CGGAATACTAA)" reported_result=2.18
polymer_sequence="GTCGAGGCATGGACCGGTTTTCCCGGTAATCCGTATTTGTG (site GTCGAGGCTCA)" reported_result=0.765
polymer_sequence="CCGAGGCCATGGACCGGTTTTCCCGGTAATCCGTATTTGGC (site CCGAGGCCTGC)" reported_result=0
polymer_sequence="GGGCGTCCATGGACCGGTTTTCCCGGTAATCCGTATTTGCA (site GGGCGTCCTTG)" reported_result=2.59
polymer_sequence="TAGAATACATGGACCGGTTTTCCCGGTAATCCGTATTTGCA (site AAGAATACTTG)" reported_result=0.559
polymer_sequence="AGGACCACATGGACCGGTTTTCCCGGTAATCCGTATTTGAC (site AGGACCACTGT)" reported_result=2.79
polymer_sequence="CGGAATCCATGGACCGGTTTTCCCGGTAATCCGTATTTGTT (site CGGATTTCTAA)" reported_result=0
polymer_sequence="GAAGAGTCATGGACCGGTTTTCCCGGTAATCCGTATTTGTT (site GAAGATTCTAA)" reported_result=0.417
polymer_sequence="GGTACTGCATGGACCGGTTTTCCCGGTAATCCGTATTTGCC (site GGTACTGCTGG)" reported_result=1.58
polymer_sequence="TGCGCTTCATGGACCGGTTTTCCCGGTAATCCGTATTTGGG (site TGCGCTTCTCC)" reported_result=0.0195
polymer_sequence="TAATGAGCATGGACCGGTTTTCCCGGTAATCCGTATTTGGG (site TAATGAGCTCA)" reported_result=0.00405
polymer_sequence="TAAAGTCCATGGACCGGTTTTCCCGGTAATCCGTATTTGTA (site GAAAGTCCTTA)" reported_result=0.00467
polymer_sequence="GTTAGGACATGGACCGGTTTTCCCGGTAATCCGTATTTGGC (site GTTAGAACTGC)" reported_result=1.16
polymer_sequence="AAGAACGCATGGACCGGTTTTCCCGGTAATCCGTATTTGGG (site AAGTACGCTCC)" reported_result=0.0143
polymer_sequence="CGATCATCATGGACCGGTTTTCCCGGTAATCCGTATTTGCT (site CGATAAACTAG)" reported_result=0.0203
polymer_sequence="ATCCTAGCATGGACCGGTTTTCCCGGTAATCCGTATTTGAG (site ATCCAAGCTCT)" reported_result=0.122
polymer_sequence="AGATTCGCATGGACCGGTTTTCCCGGTAATCCGTATTTGGA (site AGATTCGCTTC)" reported_result=1.89
polymer_sequence="ACTTAACCATGGACCGGTTTTCCCGGTAATCCGTATTTGCA (site ACTTAACCTTG)" reported_result=0
polymer_sequence="CCAGGTGCATGGACCGGTTTTCCCGGTAATCCGTATTTGAG (site CCAGGTGCTCT)" reported_result=0.843
polymer_sequence="CAGAATTCATGGACCGGTTTTCCCGGTAATCCGTATTTGGA (site CAGAATTCTTC)" reported_result=3.34
